System: Haemaphysalis longicornis
assay_method_text: Tickcidal effect against Haemaphysalis longicornis (dry film in glass vial)
Format: in vivo
condition_info: 24 h, read-out: Death rate after one day
reported_endpoint: pest or weed control at 200 µg/mL (%)
Answers are plain numbers, in %.

Worked cases, answers included:
molecule="C[C@H]1CC(=O)N2C[C@]34C[C@@]5(C(=O)N(C)C6OC65)C(C)(C)[C@@H]3C[C@]12C(=O)N4C (stereo partly shown) [Compound 6]" reported_endpoint="pest or weed control at 200 µg/mL" value_units=% measured_result=100
molecule="C[C@H]1CC(=O)N2C[C@]34C[C@]5(CCN(C)C5=O)C(C)(C)[C@@H]3C[C@]12C(=O)N4C [Compound 4]" reported_endpoint="pest or weed control at 200 µg/mL" value_units=% measured_result=100
molecule="C[C@H]1CC(=O)N2C[C@]34C[C@]5(C[C@@H](O)N(C)C5=O)C(C)(C)[C@H]3C[C@]12C(=O)N4C [Compound 1]" reported_endpoint="pest or weed control at 200 µg/mL" value_units=% measured_result=80

Request: What value of pest or weed control at 200 µg/mL has been reported for the following molecule? C[C@H]1CC(=O)N2C[C@]34C[C@]5(C=CN(C)C5=O)C(C)(C)[C@@H]3C[C@]12C(=O)N4C [Compound 3]
Result: 80

---

assay_method_text: Single oral administration acute toxicity against rat
Format: in vivo
condition_info: female, Jcl: Wistar, in vivo, 2000 mg/kg, single oral administration
reported_endpoint: LD50 at 15 days

Request: What value of LD50 at 15 days has been reported for the following molecule? C[C@H]1CC(=O)N2C[C@]34C[C@]5(CC(=O)N(C)C5=O)C(C)(C)[C@@H]3C[C@]12C(=O)N4C [Compound A, 16-keto aspergillimide]
Result: ≥ 2000 mg/kg

---

Test system: Haemaphysalis longicornis
assay_method_text: Tickcidal effect against Haemaphysalis longicornis (dry film in glass vial)
Format: in vivo
condition_info: 24 h, 200 ppm acetone solution (30 μl), dry film, larva ticks, 25 C, read-out: Death rate after one day
For each entry below, report its pest or weed control at 200 µg/mL value.
Answers are plain numbers, in %.

Worked cases, answers included:
molecule="C[C@H]1CC(=O)N2C[C@]34C[C@]5(CC(OCc6ccccc6)N(C)C5=O)C(C)(C)[C@@H]3C[C@]12C(=O)N4C (stereo partly shown) [Compound 9]" reported_endpoint="pest or weed control at 200 µg/mL" value_units=% measured_result=100
molecule="C[C@H]1CC(=O)N2C[C@]34C[C@@]5(C(=O)N(C)C(=O)C5O)C(C)(C)[C@@H]3C[C@]12C(=O)N4C (stereo partly shown) [Compound 7]" reported_endpoint="pest or weed control at 200 µg/mL" value_units=% measured_result=100
molecule="CC(=O)O[C@@H]1C[C@]2(C[C@@]34CN5C(=O)C[C@H](C)[C@]5(C[C@@H]3C2(C)C)C(=O)N4C)C(=O)N1C [Compound 2]" reported_endpoint="pest or weed control at 200 µg/mL" value_units=% measured_result=100

Kindly review the next molecule as well.
Request: What value of pest or weed control at 200 µg/mL has been reported for the following molecule? COC1C[C@]2(C[C@@]34CN5C(=O)C[C@H](C)[C@]5(C[C@@H]3C2(C)C)C(=O)N4C)C(=O)N1C (stereo partly shown) [Compound 8]
Result: 100
